# Tested on: M14 melanoma
# ASSAY SUMMARY: NCI tumour cell line growth inhibition, 48 h
QUANTITY NAME: TGI

Recorded results for 5 molecules are shown here.
MOLECULE | MEASUREMENT
COc1ccc2c(c1)[n+](=O)c(C(=O)C/C(=N/OCCCc1ccccc1)C(=O)NC13CC4CC(CC(C4)C1)C3)c(C)n2[O-] | > 100 µM
O=C(O)CCNC1CCCCC1 | > 100 µM
O=C1c2[nH]c3ccc(Br)cc3c2CCN1Cc1ccc(Cl)cc1 | 28.5 µM
O=[N+]([O-])c1ccc(C=NC2CCCCC2)cc1 | > 100 µM
COc1cc2cc(Oc3ccc(NC(=O)Nc4ccc(Cl)c(C(F)(F)F)c4)cc3)c(C)nc2cc1OCCN1CCOCC1 | 3.45 µM

Go through the list and state TGI for each entry.
1. Cc1cc2cc3c(cc2c(-c2ccc([N+](=O)[O-])cc2)n1)OCO3
2. CC(=O)Oc1cc(Cl)c(C)c2c1[C@H]1CC[C@]3(C)[C@@H](OC(C)=O)CC[C@H]3[C@@H]1CC2

Return:
["> 100 µM", "> 100 µM"]

Go through the list and state TGI for each entry.
1. O=C1CSSCC(=O)Nc2ccccc2N1
2. Cc1c(C(=O)C/C(=N/NC(=O)C[N+](C)(C)C)C(=O)Nc2ccc(Cl)cc2)[n+](=O)c2ccccc2n1O

Return:
> 100 µM
> 100 µM

Go through the list and state TGI for each entry.
1. CCCC(=O)OCC1OC(n2cnc3c(=S)nc[nH]c32)C(OC(=O)CCC)C1OC(=O)CCC (stereo not drawn)
2. CCC(C)(C)C1CCC2c3c([nH]c4ccccc34)C3C(=O)N(c4ccc(OC)cc4)C(=O)C3C2C1 (stereo not drawn)
3. O=c1cc(N2CCNCC2)nc2ccccn12
4. CN(C)CCNC(=O)c1cccc2ccc(-c3ccncc3)nc12
5. Oc1c2cc(Cl)cc1COCc1cc(Cl)cc(c1O)COCc1cc(Cl)cc(c1O)COC2

Return:
["> 100 µM", "> 100 µM", "> 100 µM", "16.1 µM", "64.7 µM"]

Go through the list and state TGI for each entry.
1. COc1ccc(CC2CCc3nc(N)nc(N)c3C2)cc1OC (stereo not drawn)
2. COc1ccccc1N(CN1C(=O)CCC1C(=O)O)C(C)=O (stereo not drawn)
3. O=C1c2cccc([N+](=O)[O-])c2C(=O)N1c1ncn[nH]1

Return:
> 39.5 µM
> 100 µM
> 100 µM

Go through the list and state TGI for each entry.
1. COC1(C)CP(=O)(OC(C)C)CC(C)=C1Cl (stereo not drawn)
2. CNC(=O)C1CCc2nnc(-c3ccccc3)n21 (stereo not drawn)
3. O=c1cc(-c2ccccc2)oc2cc(OC/C(=N/O)c3ccccc3)ccc12
4. CN(CCC(=O)O)C1=Nc2ccc(Cl)cc2C(c2ccccc2)=[N+]([O-])C1
5. CCOC(=O)C1(Cc2ccccc2)C=CN(C(=O)c2ccccc2)C=C1

Return:
["46.2 µM", "> 100 µM", "> 50 µM", "> 100 µM", "> 100 µM"]

Go through the list and state TGI for each entry.
1. O=C(O)C1CCCN(CCc2c[nH]c3ccccc23)C1 (stereo not drawn)
2. CN(C)c1ccc(/C=C2/NC(=S)NC2=O)cc1
3. COc1cc2ncnc(Nc3cccc(Cl)c3)c2cc1OC
4. O=C1c2ccccc2C(=O)N1CCc1ncc[nH]1
5. Nc1nc2c(nnn2C2CC(O)C(CO)O2)c(=O)[nH]1 (stereo not drawn)
6. COc1ccc2c(c1)-c1nc(=S)n(CCCN(C)C)c3ccc([N+](=O)[O-])c(c13)N2

Return:
> 100 µM
> 100 µM
25.4 µM
> 100 µM
> 92.1 µM
22.1 µM

Go through the list and state TGI for each entry.
1. Cc1cc2c(cc1Cl)SC1=NN(C)S(=O)N1S2(=O)=O (stereo not drawn)
2. CCCCC(=O)c1ccc2ccccc2c1O

Return:
1. > 100 µM
2. > 100 µM

Go through the list and state TGI for each entry.
1. c1nc(N2CC2)c2cnn(C3CCCCO3)c2n1 (stereo not drawn)
2. Cc1nc(-c2cc3c(ccc4ccccc43)oc2=O)cs1
3. COc1ccc2c(c1)C(=O)c1c-2n(CCCn2ccnc2)c(=O)c2cc([N+](=O)[O-])ccc12
4. c1ccc(-c2cn3c(nc4ccccc43)c(-c3ccccc3)n2)cc1

Return:
1. > 100 µM
2. > 100 µM
3. < 0.01 µM
4. > 100 µM
